Exercise: state measured pKi for each of the compounds provided.
biological target: Neuronal acetylcholine receptor subunit alpha-7 (Rattus norvegicus, UniProt Q05941); assay: Displacement of [125I]alpha-Bungarotoxin from alpha7 nAChR in Sprague-Dawley rat hippocampal membranes pre-incubated for 5 mins followed by overnight incubation by radioligand liquid scintillation counter analysis
Sequence (Q05941 whole entry): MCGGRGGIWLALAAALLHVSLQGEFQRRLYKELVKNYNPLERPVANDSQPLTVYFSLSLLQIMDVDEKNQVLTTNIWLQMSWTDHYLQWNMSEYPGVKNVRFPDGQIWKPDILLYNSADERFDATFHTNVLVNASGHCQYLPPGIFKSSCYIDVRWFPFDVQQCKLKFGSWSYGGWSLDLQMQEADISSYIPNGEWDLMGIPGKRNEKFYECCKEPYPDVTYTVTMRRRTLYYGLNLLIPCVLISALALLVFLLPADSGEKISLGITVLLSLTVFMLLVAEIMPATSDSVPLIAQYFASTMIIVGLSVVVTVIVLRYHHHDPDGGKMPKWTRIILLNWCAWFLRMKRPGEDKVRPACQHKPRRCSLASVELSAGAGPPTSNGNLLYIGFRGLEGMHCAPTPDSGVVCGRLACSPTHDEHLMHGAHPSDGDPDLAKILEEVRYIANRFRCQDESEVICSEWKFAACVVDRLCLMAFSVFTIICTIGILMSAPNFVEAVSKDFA
Note on pKi: it is the negative log10 of concentration, concentration in mol/L.

Value of pKi reported for the compound Clc1cncc(N2CC3CC(C2)N3)c1 is 7.14

Value of pKi reported for the compound Cc1ccc(-c2cncc(N3CC4CC(C3)N4)c2)cc1 is 4.02

Value of pKi reported for the compound O=[N+]([O-])c1ccc(-c2cncc(N3CC4CC(C3)N4)c2)cc1 is 5.30

Value of pKi reported for the compound Clc1ccc(-c2cncc(N3CC4CC(C3)N4)c2)cc1Cl is 4.44

Value of pKi reported for the compound Brc1cncc(N2CC3CC(C2)N3)c1 is 6.75

Value of pKi reported for the compound Brc1ccc(-c2cncc(N3CC4CC(C3)N4)c2)cc1 is 4.47

----------
experiment: Displacement of [3H]-Epibatidine from alpha4beta2* nAChR in Sprague-Dawley rat cortical membranes pre-incubated for 5 mins followed by overnight incubation by radioligand liquid scintillation counter analysis
Exercise: state measured Ki for each of the compounds provided.
Numbers only here, please. The scale is nM.

Value of Ki reported for the compound c1ccc(-c2cncc(N3CC4CC(C3)N4)c2)cc1 is 0.0112

Value of Ki reported for the compound Fc1ccc(-c2cncc(N3CC4CC(C3)N4)c2)cc1 is 0.0248

Value of Ki reported for the compound Clc1ccc(-c2cncc(N3CC4CC(C3)N4)c2)cc1 is 0.0328

Value of Ki reported for the compound Clc1ccc(-c2cncc(N3CC4CC(C3)N4)c2)cc1Cl is 0.0908

Value of Ki reported for the compound Clc1cncc(N2CC3CC(C2)N3)c1 is 0.00632

Value of Ki reported for the compound Cc1ccc(-c2cncc(N3CC4CC(C3)N4)c2)cc1 is 0.0143

Value of Ki reported for the compound Clc1ccc(-c2cncc(N3CC4CC(C3)N4)c2)c(Cl)c1 is 0.0821

Value of Ki reported for the compound O=[N+]([O-])c1ccc(-c2cncc(N3CC4CC(C3)N4)c2)cc1 is 0.0105

Value of Ki reported for the compound Clc1ccc(Cl)c(-c2cncc(N3CC4CC(C3)N4)c2)c1 is 0.0667

Value of Ki reported for the compound Brc1cncc(N2CC3CC(C2)N3)c1 is 0.00572
